The values you see were collected from PubChem BioAssay.

tested on: Sonic hedgehog protein (Shh); experiment: small-molecule binders of Shh protein, primary screen, biochemical, small-molecule microarray, 635/667 nm fluorescence (AID 1151); conditions: small-molecule microarray binding, 635 nm fluorescence; higher = more signal;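 also: Shh protein binding to compounds spotted on small-molecule microarray slides; score combines spot fluorescence intensity with signal-to-noise across triplicate slides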
Label rule, in plain words: composite z-score of 0.5 and up is Condition met, under 0.5 is Condition not met.

Exam item: In plain terms: is recorded composite z-score at least 0.5 for `C=CCOC(=O)[C@H]1[C@@H]2C(=O)O[C@@H](c3ccccc3)[C@@H](c3ccccc3)N2[C@@H](c2ccc(OCCOC(=O)[C@H]3C[C@H]4C(=O)N5CCC[C@H]5C(=O)N4[C@H]3c3ccc(O)cc3)cc2)[C@]12C(=O)Nc1ccccc12` ?
Marked response: Condition met

Exam item: Do the same for CCCCN1CC=CC23O[C@@H]4C=CCOC(=O)[C@@H]4[C@H]2C(=O)N(CCCCCO)[C@@H]3C1=O (stereo partly specified) please
Marked response: Condition met

Exam item: Do the same for `C=C[C@H](COC(C)=O)N(C(=O)OC(C)(C)C)S(=O)(=O)c1ccc(Br)cc1` please
Marked response: Condition not met

Exam item: Do the same for CC(=O)n1cc(C(O)C2C=CC3C(=O)N(C)C(=O)C3N2Nc2ccccc2)c2ccccc21 (stereo unspecified) please
Marked response: Condition met

Exam item: Do the same for `COC(=O)[C@@]1(Cc2ccccc2)[C@H]2c3cc(C(=O)N4CCCC4)n(CC4CC4)c3C[C@H]2CN1C(=O)c1ccccc1` please
Marked response: Condition not met

Exam item: Do the same for `COc1ccc(CCNC(=O)[C@@H]2c3ccccc3C(=O)N(C3Cc4ccccc4C3)[C@H]2c2ccc(CO)cc2)cc1` please
Marked response: Condition not met

Exam item: Do the same for `CCCCCCC#C[Si](O[C@H](c1ccccc1)c1cn([C@H](CO)Cc2ccccc2)nn1)(C(C)C)C(C)C` please
Marked response: Condition met

Exam item: Do the same for CC(C)c1ccc(NN2C(C(O)C(c3ccccc3)c3ccccc3)C=CC3C(=O)N(c4ccccc4)C(=O)C32)cc1 (stereo unspecified) please
Marked response: Condition not met

Exam item: Do the same for `C=CCOC(=O)[C@@H]1[C@H]2C(=O)O[C@H](c3ccccc3)[C@H](c3ccccc3)N2[C@H](c2ccc(OCCOC(=O)[C@@H]3C[C@@H]4C(=O)N[C@@H](Cc5ccccc5)C(=O)N4[C@@H]3c3ccc(O)cc3)cc2)[C@@]12C(=O)Nc1ccc(I)cc12` please
Marked response: Condition met

Exam item: Do the same for `COCCOC(=O)N1C(=O)[C@@]2(c3cc(C#CCNC(N)=O)ccc31)[C@H](C(=O)NC[C@H](O)c1ccccc1)[C@H]1C(=O)O[C@H](c3ccccc3)[C@H](c3ccccc3)N1[C@@H]2c1ccccc1OCCO` please
Marked response: Condition met

Exam item: Do the same for `C=CCN1C(=O)[C@]2(O[C@H](CCO)[C@@H]([Si](C)(C)c3ccc(OC)cc3)[C@@H]2C)c2cc(N3CCCCC3=O)ccc21` please
Marked response: Condition met

Exam item: Do the same for `COC(=O)[C@@]1(Cc2ccc(F)cc2)[C@H]2c3cc(C(=O)N4CCCC4)n(Cc4ccc(C)o4)c3C[C@H]2CN1C(=O)c1ccccc1` please
Marked response: Condition not met

Exam item: Do the same for `C=CCOC(=O)[C@H]1[C@@H]2C(=O)O[C@@H](c3ccccc3)[C@@H](c3ccccc3)N2[C@@H](c2ccc(OCCOC(=O)[C@@H]3C[C@@H]4C(=O)N5CCC[C@H]5C(=O)N4[C@@H]3c3cccc(OCCO)c3)cc2)[C@]12C(=O)Nc1ccccc12` please
Marked response: Condition met

Exam item: Do the same for CC(C)(C)OC(=O)CC[C@]1(C(=O)NCC(O)CO)COC(c2ccc(OCCCO)cc2)=N1 (stereo partly specified) please
Marked response: Condition not met

Exam item: Do the same for `C[N+](C)(C)CCCCNC(=O)[C@H]1C[C@H]2C(=O)N[C@@H](Cc3ccccc3)C(=O)N2[C@H]1c1ccc(O)cc1` please
Marked response: Condition met

Exam item: Do the same for `COCCOC(=O)N1C(=O)[C@@]2(c3cc(C#CC4=CCCCC4)ccc31)[C@H](C(=O)Nc1nc3ccccc3s1)[C@H]1C(=O)O[C@H](c3ccccc3)[C@H](c3ccccc3)N1[C@@H]2c1ccccc1OCCO` please
Marked response: Condition met

Exam item: Do the same for `C=CCNC(=O)[C@H]1[C@@H]2C(=O)O[C@@H](c3ccccc3)[C@@H](c3ccccc3)N2[C@@H](c2ccc(OCCO)cc2)[C@]12C(=O)Nc1ccc(C#CC3=CCCCC3)cc12` please
Marked response: Condition met

Exam item: Do the same for CC(C)c1ccc(NN2C(C(O)c3cc(C(F)(F)F)cc(C(F)(F)F)c3)C=CC3C(=O)N(c4ccccc4)C(=O)C32)cc1 (stereo unspecified) please
Marked response: Condition not met

Exam item: Do the same for `C=CCNC(=O)[C@H]1[C@@H]2C(=O)O[C@@H](c3ccccc3)[C@@H](c3ccccc3)N2[C@@H](c2ccc(O)cc2)[C@]12C(=O)N(C(=O)OCCOC)c1ccc(C#CCNC(N)=O)cc12` please
Marked response: Condition met

Exam item: Do the same for N#Cc1ccc(NN2C(C(O)c3c(F)cccc3Cl)C=CC3C(=O)N(c4ccccc4)C(=O)C32)cc1 (stereo unspecified) please
Marked response: Condition met

Exam item: Do the same for CCOC(=O)C1=CCC(c2ccc(C)cc2)N(S(=O)(=O)c2ccc(C)cc2)C1 (stereo unspecified) please
Marked response: Condition not met

Exam item: Do the same for O=C1NC(=O)C2C1C=CC(C(O)c1cccc3ccccc13)N2Nc1ccccn1 (stereo unspecified) please
Marked response: Condition not met

Exam item: Do the same for `CC(C)(C)OC(=O)CC[C@]12N=C(c3ccc(OCCCO)cc3)O[C@H]1c1ccccc1N(CCS(=O)(=O)c1ccccc1)C2=O` please
Marked response: Condition met

Exam item: Do the same for `COc1ccc([Si](C)(C)[C@H]2[C@H](CCO)O[C@@]3(C(=O)N(C)c4c(Br)cc(C)cc43)[C@@H]2C)cc1` please
Marked response: Condition met

Exam item: Do the same for `[N-]=[N+]=NCc1ccccc1[C@@H]1OC(c2ccc(OCCCO)cc2)=N[C@]1(CCS(=O)(=O)c1ccccc1)C(=O)NCCN1CCOCC1` please
Marked response: Condition met

Exam item: Do the same for `C=CCNC(=O)[C@@H]1[C@H]2C(=O)O[C@H](c3ccccc3)[C@H](c3ccccc3)N2[C@H](c2ccc(OCCO)cc2)[C@@]12C(=O)Nc1ccc(C#CCCO)cc12` please
Marked response: Condition met

====

assay: E. coli acrAB mutant growth effects, primary screen, E. coli filamentation inducers, strain DRC39, OD650, 48 h (AID 1179);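 also: screen aims at cell division blockers that make cells filament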; settings: E. coli DRC39 delta-acrAB growth, higher = more signal, called active from +8 up or from −8 down
Assign z-score to each entry below.
The answer should be written as a number, with no unit following it.

Exam item: Which z-score value belongs to `COCCOC(=O)N1C(=O)[C@@]2(c3cc(C#CCCO)ccc31)[C@H](c1ccc(OCCO)cc1)N1[C@H](c3ccccc3)[C@H](c3ccccc3)OC(=O)[C@H]1[C@@H]2C(=O)N1CCN(c2ncccn2)CC1` ?
Marked response: -0.327

Exam item: Do the same for `COC(=O)[C@@]1(Cc2ccccc2)[C@H]2c3cc(C(=O)N4CCCC4)n(Cc4cccc5ccccc45)c3C[C@H]2CN1C(=O)c1ccccc1` please
Marked response: -0.0176

Exam item: Do the same for `[N-]=[N+]=NCc1ccccc1[C@@H]1OC(c2ccc(OCCCO)cc2)=N[C@]1(CCS(=O)(=O)c1ccccc1)C(=O)NCc1ccccc1` please
Marked response: -0.678

Exam item: Do the same for O=C1NC(=O)C2C1C=CC(C(O)c1ccccc1)N2Nc1ccc(Cl)cc1Cl (centres undefined) please
Marked response: -0.224

Exam item: Do the same for `O=C1c2ccccc2[C@@]2(Cc3ccccc3N(CC(F)(F)F)C2=O)[C@H](c2ccc(CO)cc2)N1Cc1ccccc1Cl` please
Marked response: -0.411

Exam item: Do the same for `CCOC(=O)C[C@H]1[C@H](OC(=O)c2cc3ccccc3oc2=O)[C@@H](NC(=O)C2CCCCC2)c2cc(OCCCO)ccc2N1C(=O)c1ccccc1` please
Marked response: 0.612

Exam item: Do the same for `CCOC(=O)C[C@H]1[C@H](OC(=O)Cc2ccc3c(c2)OCO3)[C@@H](NC(=O)c2ccc3ccccc3c2)c2cc(OCCCO)ccc2N1C(=O)c1ccccc1` please
Marked response: 0.15

Exam item: Do the same for `O=C(NCc1ccccc1)[C@@]1(CCS(=O)(=O)c2ccccc2)N=C(c2ccc(OCCCO)cc2)O[C@H]1c1ccccc1` please
Marked response: 1.62

Exam item: Do the same for `O=C(O)[C@@]1(CCS(=O)(=O)c2ccccc2)COC(c2ccc(OCCCO)cc2)=N1` please
Marked response: -0.216

Exam item: Do the same for `COCCOC(=O)N1C(=O)[C@@]2(c3cc(C#CCCO)ccc31)[C@H](C(=O)N1CCc3cc(OC)c(OC)cc3C1)[C@H]1C(=O)O[C@H](c3ccccc3)[C@H](c3ccccc3)N1[C@@H]2c1ccc(O)cc1` please
Marked response: 0.884

Exam item: Do the same for COc1cc(CO)cc(I)c1O[C@H]1C=C(C(=O)NCCO)C[C@@H](N(CCN2CCOCC2)C(=O)C2CCOC2)[C@@H]1O (some centres undefined) please
Marked response: 1.5

Exam item: Do the same for `CN(C)C(=O)[C@]1(Cc2ccccc2N=[N+]=[N-])N=C(c2ccc(OCCCO)cc2)O[C@@H]1c1ccccc1` please
Marked response: 1.15

Exam item: Do the same for `CC[C@@H]1C=C(C(=O)O)[C@H](c2ccco2)N1S(=O)(=O)c1ccc(C)cc1` please
Marked response: 0.34

Exam item: Do the same for CC(C)C(CO)N1C(=O)[C@@H]2[C@H]3C(=O)OCC=C[C@H]3OC23C=CCN(C(C)C)C(=O)[C@@H]13 (some centres undefined) please
Marked response: -0.137
